- assay remarks: melting temperature; fluorescence melt of hairpins on a sequencing array, two-state fit, raised by 9.35 °C to match UV melts
- condition info: sodium 0.088 M
We begin with a simple list: items and their reported Tm.
Please give a number only; it is taken to be in °C.

• GATCGCCGGAGCGATC ((((((....)))))) = 68.9
• GCGTGACGAAAGTCTCGC (((.(((....))).))) = 67.7
• GCCTGCGAAAGCATAGGC ((((((....)))..))) = 56
• GCCTACGGAAACGTAGAC (.(((((....))))).) = 41.8
• GATCCCCACTGGGATC ((((((....)))))) = 62.2

Now examine the next entry.
### Prompt GET /values?readout=Tm&item= GTATACTCGAAAGAGTAC (((..(((....))))))
### Response 35
